Recorded viability, T/C, one value per entry.
- Test system: 996289-038-R-J1-PDC complex spheroid viability;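 note: spheroids exposed to the agents for 7 days before readout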
- Procedure Summary: Anticancer human tumor 996289-038-R-J1-PDC patient-derived colon adenocarcinoma cell line growth inhibition [CLK]
- Test Settings: second compound 0.0316 µM; first compound 0.01 µM; stronger effect = lower value

Molecule | Unit Label | viability, T/C
CCN1CCN(Cc2ccc(Nc3ncc(F)c(-c4cc(F)c5nc(C)n(C(C)C)c5c4)n3)nc2)CC1 + CNC(=O)c1ccc(Nc2nc(OC3CCCC3)c3c(-c4ccc5nc(C)oc5c4)c[nH]c3n2)c(OC)c1 | % | 103
Cn1ncnc1[C@H]1c2n[nH]c(=O)c3cc(F)cc(c23)N[C@@H]1c1ccc(F)cc1 + CN1CCN(c2cc(C(=O)Nc3cc4cc(-c5cnn(C)c5)ccc4cn3)ccn2)CC1 | % | 107
Cn1ncnc1[C@H]1c2n[nH]c(=O)c3cc(F)cc(c23)N[C@@H]1c1ccc(F)cc1 + CNC(=O)c1ccc(Nc2nc(OC3CCCC3)c3c(-c4ccc5nc(C)oc5c4)c[nH]c3n2)c(OC)c1 | % | 124

Reference source: PubChem BioAssay AID2060600
